# Dmax values compiled below
test_system: PDE4B (Homo sapiens, UniProt Q07343)
Construct: endogenous in cells; host or cells: A549
Sequence (Q07343 whole entry): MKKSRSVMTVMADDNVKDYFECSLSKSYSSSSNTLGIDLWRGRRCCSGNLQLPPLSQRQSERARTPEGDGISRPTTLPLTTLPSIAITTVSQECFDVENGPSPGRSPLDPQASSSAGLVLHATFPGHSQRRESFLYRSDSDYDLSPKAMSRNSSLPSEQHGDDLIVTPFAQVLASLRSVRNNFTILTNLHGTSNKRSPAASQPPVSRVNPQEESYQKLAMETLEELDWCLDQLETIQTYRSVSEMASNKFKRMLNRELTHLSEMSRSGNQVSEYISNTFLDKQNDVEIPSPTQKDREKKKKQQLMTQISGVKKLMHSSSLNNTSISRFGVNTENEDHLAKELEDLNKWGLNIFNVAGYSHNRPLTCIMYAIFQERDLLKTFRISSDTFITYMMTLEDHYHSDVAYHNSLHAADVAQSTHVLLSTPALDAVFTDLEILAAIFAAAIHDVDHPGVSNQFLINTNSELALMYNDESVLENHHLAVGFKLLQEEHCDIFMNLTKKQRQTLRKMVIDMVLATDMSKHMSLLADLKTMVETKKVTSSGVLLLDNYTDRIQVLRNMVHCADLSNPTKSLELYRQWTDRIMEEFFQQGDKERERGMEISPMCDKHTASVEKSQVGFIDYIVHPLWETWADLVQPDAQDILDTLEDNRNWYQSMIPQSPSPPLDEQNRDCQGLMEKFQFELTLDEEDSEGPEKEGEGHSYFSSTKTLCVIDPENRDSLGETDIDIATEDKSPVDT
measurement_notes: Protein degradation assay, western blot, PDE4B in A549 cells
Format: cell-based
condition_info: 24 h treatment, 'as high as about' = upper value for the group, read-out: PDE4B degradation relative to DMSO
Method: Example B2. Protein Degradation Assay A549 cells were grown in RPMI 1640 media supplemented with 10% fetal bovine serum, streptomycin, and penicillin. The cells were plated in 6-well plates at 300,000 cells/well in the growth media. […] For a western blot analysis, the whole cell protein extracts were separated on 4-12% SDS-polyacrylamide gels, transferred to nitrocellulose, and probed with primary antibodies. […] The signals were detected using an ODYSSEY® Imaging System. […]

compound | Dmax
O=C1CCC(N2Cc3cc(C4CCN(CCCCCCCOc5cc(C(=O)Nc6c(Cl)cncc6Cl)ccc5OC(F)F)CC4)c(F)cc3C2=O)C(=O)N1 (stereo not drawn) | ≤ 70%
CCOc1cc([C@@H](CS(C)(=O)=O)N2C(=O)c3cc(CCCCCCCCCCCCN4CCC(c5cc(F)cc6c5CN(C5CCC(=O)NC5=O)C6=O)CC4)cc(NC(C)=O)c3C2=O)ccc1OC (stereo partly drawn) | ≤ 70%

Proceeding to the next compound to report its Dmax.
Query: Record request: Dmax value, item CCOc1cc([C@@H](CS(C)(=O)=O)N2C(=O)c3cccc(NC(=O)COCCOCCOCCOCCNc4cccc5c4C(=O)N(C4CCC(=O)NC4=O)C5=O)c3C2=O)ccc1OC (stereo partly drawn)
Response: ≤ 70%

Reference source: patent US20240124418A1
